Biological target: HLA-B1501 (Homo sapiens, UniProt P01889, A329T/A93T/A95T/C349S/D201E/D98Y/E187L/E204Q/E69M/E70A/K202T/N87E/Q94N/R155S/R180W/S121R/S35A/S48A/V306I/V36M/Y140S/Y91S)
Assay: Competitive peptide binding assay, CIR-B1501
Conditions: HMy2.CIR-B1501 cells, reference Cy5-[…], class from inhibition at 5 and 15 μM, flow cytometry MFI; read-out: Binding affinity with HLA-B1501
pIC50: −log10 of the molar value. Peptide text beside a SMILES is read from it.
Measure Name: pIC50

CSCC[C@H](NC(=O)[C@H](CCCCN)NC(=O)CN)C(=O)N[C@@H](CCCCN)C(=O)N[C@@H](CC(=O)O)C(=O)N[C@@H](CC(C)C)C(=O)N[C@@H](CO)C(=O)N1CCC[C@H]1C(=O)N[C@@H](CCCNC(=N)N)C(=O)N[C@@H](Cc1c[nH]c2ccccc12)C(=O)O [Epitope Y224] (H-GKMKDLSPRW-OH; N-terminus and C-terminus assumed)
< 4.82
CC(C)C[C@H](NC(=O)[C@H](CC(=O)O)NC(=O)[C@@H](NC(=O)[C@H](CC(=O)O)NC(=O)[C@@H](NC(=O)[C@H](Cc1c[nH]cn1)NC(=O)[C@H](CO)NC(=O)[C@H](CCC(=O)O)NC(=O)[C@H](C)N)C(C)C)[C@@H](C)O)C(=O)O [Epitope Y198] (H-AESHVDTDL-OH; N-terminus and C-terminus assumed)
< 4.82

====

Molecular target: HLA-B1302 (Homo sapiens, UniProt P01889, A65T/A93T/A95T/D138N/D201E/D98Y/E176V/E204Q/E69M/E70A/G107R/K202T/L105A/L119W/N104T/N87E/Q94N/R106L/R155S/R169L/R180L/S101N/S121T/S35A/S48T/V127L/V36M/Y140L/Y91S)
Assay: Competitive peptide binding assay, CIR-B1302
Settings: HMy2.CIR-B1302 cells, reference Cy5-MMWYWGPSL, class from inhibition at 5 and 15 μM, flow cytometry MFI; read-out: Binding affinity with HLA-B1302
Peptide text beside a SMILES is read from it.
// values below are reported IC50
Measure Name: IC50

C[C@H](NC(=O)[C@H](CO)NC(=O)[C@H](CO)NC(=O)[C@@H](N)Cc1ccc(O)cc1)C(=O)N[C@@H](CC(N)=O)C(=O)N[C@@H](CC(N)=O)C(=O)N[C@@H](CS)C(=O)N[C@H](C(=O)N[C@@H](Cc1ccccc1)C(=O)O)[C@@H](C)O [Epitope Y247] (H-YSSANNCTF-OH; N-terminus and C-terminus assumed)
5 to 15 µM
CC[C@H](C)[C@H](NC(=O)[C@H](CC(C)C)NC(=O)[C@@H](N)CCC(=O)O)C(=O)N[C@@H](CCCNC(=N)N)C(=O)N[C@@H](CCC(N)=O)C(=O)NCC(=O)N[C@H](C(=O)N[C@@H](CC(=O)O)C(=O)N[C@@H](Cc1ccc(O)cc1)C(=O)O)[C@@H](C)O [Epitope Y162] (H-ELIRQGTDY-OH; N-terminus and C-terminus assumed)
> 15 µM
CC(C)C[C@H](NC(=O)[C@H](CC(N)=O)NC(=O)[C@H](CCCCN)NC(=O)[C@@H](NC(=O)[C@H](CCCNC(=N)N)NC(=O)[C@H](CO)NC(=O)[C@H](Cc1ccc(O)cc1)NC(=O)[C@@H](NC(=O)[C@@H](N)Cc1ccc(O)cc1)C(C)C)C(C)C)C(=O)O [Epitope Y3] (H-YVYSRVKNL-OH; N-terminus and C-terminus assumed)
> 15 µM
